Hello, the source for this data is ChEMBL document CHEMBL1151969, in case you need it.

# pIC50 per entry
Assay: Inhibition of melanin synthesis in NHEM cells assessed as [14C]thiouracil incorporation after 72 hrs by liquid scintillation counting
Assay type: functional, cell-based, Homo sapiens
Conditions: Homo sapiens, NHEM, 72 h
Convention used: pIC50 is expressed as -log10 of the molar concentration.

Recorded results for 2 compounds are shown here.
{"structureAsSmiles": "CC(C)=CCc1cc2c(c(CC=C(C)C)c1O)O[C@H](c1ccc3c(c1)C=CC(C)(C)O3)CC2=O", "pIC50": 5.82}
{"structureAsSmiles": "COc1cc(O)c(CC=C(C)C)cc1C(=O)[C@@H](O)Cc1ccc(O)cc1", "pIC50": 5.77}

Proceeding to the next compound to report its pIC50.
# pIC50 lookup, item CC(C)=CCc1c(O)c(C)cc2c1O[C@H]1c3ccc(O)cc3OC[C@@H]21 5.84

---

Assay: Inhibition of melanin synthesis in NHEM cells assessed as [14C]thiouracil incorporation after 72 hrs by liquid scintillation counting
Assay type: functional, cell-based, Homo sapiens
Details: Homo sapiens, NHEM, 72 h
metricName: pIC50
Convention used: pIC50 is expressed as -log10 of the molar concentration.

Recorded results for 3 compounds are shown here.
{"compound": "COc1c([C@@H]2COc3c(ccc(O)c3CC=C(C)C)C2=O)ccc(O)c1CC=C(C)C [LESPEFLORIN D1]", "result": 5.83}
{"compound": "CC(C)=CCc1c(O)ccc2c1OC[C@H]1c3ccc4c(c3O[C@@H]21)C=CC(C)(C)O4", "result": 5.53}
{"compound": "COc1ccc2c(c1)oc(=O)c1c3cc(O)c(O)c(CC=C(C)C)c3oc21", "result": 4.56}

# pIC50 lookup, item CC(C)=CCc1cc(-c2oc3c(CC=C(C)C)c(O)c(O)cc3c2C(=O)c2cc3c(c(CC=C(C)C)c2O)O[C@H]2c4cc(CC=C(C)C)c(O)cc4OC[C@@H]32)c(O)cc1O 4.42

# pIC50 lookup, item CC(C)=CCc1cc([C@@H]2CC(=O)c3cc(CC=C(C)C)c(O)c(CC=C(C)C)c3O2)ccc1O 6.01

---

Assay: Inhibition of melanin synthesis in NHEM cells assessed as [14C]thiouracil incorporation after 72 hrs by liquid scintillation counting
Format: functional, cell-based, Homo sapiens
Conditions: Homo sapiens, NHEM, 72 h
metricName: IC50 (µM)
The response must be a number in µM with no trailing unit.

Recorded results for 6 molecules are shown here.
{"molecule": "OC[C@H]1O[C@@H](Oc2ccc(O)cc2)[C@H](O)[C@@H](O)[C@@H]1O [ARBUTIN]", "IC50 [µM]": 103}
{"molecule": "CC(C)=CCc1cc([C@H]2Oc3c(cc(CC=C(C)C)c(O)c3CC=C(C)C)C(=O)[C@@H]2O)ccc1O [LESPEFLORIN B3]", "IC50 [µM]": 0.68}
{"molecule": "COc1ccc2c(c1)OCc1c-2oc2c(CC=C(C)C)c(O)c(O)cc12 [LESPEFLORIN H1]", "IC50 [µM]": 27}
{"molecule": "CC(C)=CCc1cc2c(cc1O)oc(=O)c1c3cc(O)c(O)c(CC=C(C)C)c3oc21 [LESPEFLORIN I2]", "IC50 [µM]": 28.3}
{"molecule": "COc1ccc2c(c1)OC[C@H]1c3cc(OC)c(O)c(CC=C(C)C)c3O[C@@H]21 [LESPEFLORIN G9]", "IC50 [µM]": 8.38}
{"molecule": "O=c1c(-c2ccc(O)cc2)coc2cc(O)cc(O)c12 [GENISTEIN]", "IC50 [µM]": 29.2}

# IC50 lookup, item COc1ccc2c(c1)OCc1c-2oc2c3c(c(O)cc12)OC(C)(C)C=C3 [LESPEFLORIN H2] 1.48

---

Experiment: Inhibition of melanin synthesis in NHEM cells assessed as [14C]thiouracil incorporation after 72 hrs by liquid scintillation counting
Format: functional, cell-based, Homo sapiens
Settings: Homo sapiens, NHEM, 72 h
metricName: IC50

Recorded results for 2 compounds are shown here.
{"structureAsSmiles": "COc1ccc(-c2oc3c(CC=C(C)C)c(O)c(O)cc3c2C(=O)c2cc3c(c(CC=C(C)C)c2O)O[C@H]2c4cc(CC=C(C)C)c(O)cc4OC[C@@H]32)c(O)c1", "result": "> 52.8 µM"}
{"structureAsSmiles": "COc1ccc(C[C@H](O)C(=O)c2cc(CC=C(C)C)c(O)cc2OC)cc1", "result": "> 135 µM"}

Proceeding to the next compound to report its IC50.
# IC50 lookup, item COc1ccc(-c2oc3c(CC=C(C)C)c(O)c(O)cc3c2C(=O)c2cc3c(c(CC=C(C)C)c2O)O[C@H]2c4ccc(O)c(CC=C(C)C)c4OC[C@@H]32)c(O)c1 > 52.8 µM
